molecular target: leukotriene D4 (longitudinal muscle of guinea pig ileum) (Cavia porcellus); construct: The longitudinal muscle was then carefully dissected from the circular muscle of the ileum; from tissue; host or cells: guinea pig ileum, longitudinal muscle segments; experiment: Longitudinal Muscle of Guinea Pig Ileum; antagonism of LTD4-induced contraction; type: cell-based; details: 1 μM Indomethacin, 15 min with test agent, then cumulative LTD4, Arunlakshana and Schild, read-out: G.P. ILEUM pA2 (LTD4) (converted)
Sequence (Q2NNR5 whole entry): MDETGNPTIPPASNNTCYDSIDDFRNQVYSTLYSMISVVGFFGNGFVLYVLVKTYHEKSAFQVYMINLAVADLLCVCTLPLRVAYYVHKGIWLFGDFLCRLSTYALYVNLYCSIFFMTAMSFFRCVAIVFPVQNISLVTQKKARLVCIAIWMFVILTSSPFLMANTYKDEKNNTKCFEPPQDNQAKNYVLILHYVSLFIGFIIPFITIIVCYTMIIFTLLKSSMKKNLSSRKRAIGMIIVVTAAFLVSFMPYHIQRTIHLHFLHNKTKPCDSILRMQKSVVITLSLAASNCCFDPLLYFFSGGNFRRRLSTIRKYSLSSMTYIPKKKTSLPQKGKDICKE
experimental readout: Kb (nM)

The examples below pair each entry with its known result.
1. CCCCCCCCCCCCC/C=C1\CC[C@@H](CC(=O)O)[C@H](O)[C@H]1SCC(=O)O (relative stereo) [Example 15A]
3390
2. CCCCCCCCCCCCC/C=C1\CC[C@@H](CCC(=O)O)[C@@H](O)[C@@H]1SCC(=O)O (relative stereo) [Example 15C]
1620
3. CCCCCCCCCCCCC/C=C1\CC[C@@H](CCC(=O)O)[C@H](O)[C@H]1SCC(=O)O (relative stereo) [Example 15E]
2240
4. CCCCCCCCCCCCC/C=C1\CC[C@@H](CCC(=O)O)[C@@H](O)[C@@H]1SCCC(=O)O (relative stereo) [Example 15D]
2000

I: CCCCCCCCCCCCC/C=C1\CC[C@@H](CC(=O)O)[C@H](O)[C@H]1SCCC(=O)O (relative stereo) [Example 15B]
II: CCCCCCCCCCCCC/C=C1\CC[C@@H](CC(=O)O)[C@@H](O)[C@H]1SCC(=O)O (relative stereo)
// query Which numeric Kb is bigger, that of I or that of II ? Label of pick, please.
// result II
(II: 30900 nM, I: 3090 nM)

====

A short record of IC50 observed with 3H-LTD4 specific receptor (guinea pig lung membranes) (Cavia porcellus, UniProt Q2NNR5) follows.
Sequence (Q2NNR5 whole entry): as above
experimental readout: IC50 (µM)

a: CCCCCCCCCCCCC/C=C1\CC[C@@H](CC(=O)O)[C@H](O)[C@H]1SCC(=O)O (relative stereo) [Example 15A]
b: CCCCCCCCCCCCC/C=C1\CC[C@@H](CC(=O)O)[C@H](O)[C@H]1SCCC(=O)O (relative stereo) [Example 15B]
// query # query: argmin of IC50 over a and b Label of pick, please.
// result b
